Target: T1, cynomolgus monkey NKp46 (full length, on cells) (cynomolgus monkey, UniProt Q95JB9 22-306)
T1 construct: also called cynomolgus monkey NKp46-CHOK1; cynomolgus NKp46-CHOK1
T1 sequence (Q95JB9 22-306): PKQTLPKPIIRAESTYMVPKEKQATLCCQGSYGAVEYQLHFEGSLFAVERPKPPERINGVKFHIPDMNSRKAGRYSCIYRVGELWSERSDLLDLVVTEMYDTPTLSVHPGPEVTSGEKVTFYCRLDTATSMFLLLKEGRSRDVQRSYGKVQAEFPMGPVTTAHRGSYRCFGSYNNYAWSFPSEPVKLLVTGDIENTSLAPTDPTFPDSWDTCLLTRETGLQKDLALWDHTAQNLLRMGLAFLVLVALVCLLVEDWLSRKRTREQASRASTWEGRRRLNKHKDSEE
Test: flow cytometry on cynomolgus monkey NKp46-CHOK1 cells

[
  {
    "binder": "H1-PC11 humanized antibody (antibody, human IgG1, V domains shown, not shown: constant region of human IgG1) VH: EVQLVESGGGLVQPGGSLRLSCAASPYSANSFSMAWFRQAPGKGLEGVACIQAESGSTNVAPSVKGRFTISQDNSKNTLYLQMNSLRAEDTAVYYCAAFKRNVGGCELRPEHWRFWGQGTLVTVSS",
    "Top MFI": 3260
  },
  {
    "binder": "H4-PA27 humanized antibody (antibody, human IgG1, V domains shown, not shown: constant region of human IgG1) VH: DVQLVESGGGVVQPGRSLRLSCAASGRTESWYRMGWFRQAPGKGREVVARISGDTNIKYYAGSVKGRFTISRDNSKNTLYLQMSSLRAEDTAVYYCAADRTGATWDYWGQGTLVTVSS",
    "Top MFI": 3880
  }
]
